- TEST_NAME: inhibitors of MT1-MMP promoter transcription, cell-based, luciferase reporter, luminescence (AID 618);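 also: actives suppress MT1-MMP promoter-driven transcription so potencies describe inhibitors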
- TEST_SETTINGS: MT1-MMP promoter luciferase reporter cells
Out of some 87,000 compounds screened, about 540 (0.62%) were called active. No rule for the calls is given here. The sample holds actives, similar compounds and a random draw of the others, so the mix is not that of the screen. Entries with a potency or affinity are not part of this list.
Answer with one of the outcomes given here: yes (1) for active, no (0) for inactive

// return assay outcome for O=C(Nc1cccc(-c2cnc3ccccc3n2)c1)c1ccco1 no (0)

Now the same for CCOc1cccc(NC(=O)C2CC(=O)N(C)C2)c1 (stereo not drawn) no (0)

Same question for N#Cc1c(/N=C/c2cccs2)sc2c1CCCCC2 please. yes (1)

What do you get for O=C(CCl)Nc1cccc(-c2cnc3ccccc3n2)c1 ? yes (1)

Item: Cc1ccc(-c2csc3ncnc(NCCN4CCOCC4)c23)cc1 no (0)

And the next one, CC(=O)Nc1sc2c(c1C(N)=O)CCC2 ? no (0)

Entry to check: C=CCN1C(=NC(=O)CCCC(=O)O)SC2CS(=O)(=O)CC21 (stereo not drawn) no (0)

What do you get for N#Cc1c(/N=C/c2cccs2)sc2c1CCC2 ? no (0)

Another molecule: Cc1c(C(=O)Nc2ccccn2)oc2ccccc12 no (0)

One more molecule: c1ccc(NC2=Nc3ccccc3CC2)cc1 no (0)

Subsequent entry: Cc1c(C(=O)Nc2ccncc2)oc2ccccc12 no (0)

Next: O=C(Nc1ccccc1)c1cc2ccccc2o1 no (0)

# repeat for N#Cc1c(/N=C/c2ccc(Br)s2)sc2c1CCC2 no (0)

---

- TEST_NAME: inhibitors of MT1-MMP promoter transcription, cell-based, luciferase reporter, luminescence (AID 618);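 also: actives suppress MT1-MMP promoter-driven transcription so potencies describe inhibitors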
- TEST_SETTINGS: MT1-MMP promoter luciferase reporter cells
The whole screen tested about 87,000 compounds, of which about 540 (0.62%) were called active. The rule behind the calls is not given here. For the sample, actives were picked, then their nearest neighbours and some compounds at random. Measured potencies and affinities stand elsewhere.
Please answer using one outcome listed in True = active, False = inactive

Dear all, I need the recorded test outcome for Cc1ccc(CNCc2cc3c(C(C)(C)C)nn(-c4ccccc4)c3[nH]c2=O)cc1 , thank you. False

// query: O=C(O)c1ccc(COc2ccccc2Cl)cc1 False

Same question, CCOc1ccc(-c2nnc(NC3=NCCCCC3)o2)cc1 this time False

Likewise for Cc1ccc(NC(=O)CN(C)C(=O)CSc2nc3ccccc3c(=O)n2Cc2ccco2)cc1 ? False

For CCOC(=O)CCc1c(C)n(CC)c2cc(-c3ccccc3OC)nn2c1=O then? False

Same question for CCc1ccc(OCc2ccc(C(=O)NCc3ccccn3)o2)cc1 please. False

Moving on to the next molecule: CCCC(=O)Nc1cnc(NC(=O)c2cccc(F)c2)cc1C False

// next record CCOc1ccc(NC(=O)CSc2nnc(Cn3c(=O)sc4ccccc43)n2C)cc1 False

Consider next the molecule Cc1c(NC(=O)c2ccccc2)c(=O)n(-c2ccccc2)n1C in the same way. False

Another molecule to check: Clc1ccc(-c2nnc(NC3=NCCCCC3)o2)cc1 True

Repeat with Cc1c(NC(=O)c2ccc(=O)oc2)c(=O)n(-c2ccccc2)n1C False

Quick one: Fc1ccc(-c2nnc(NC3=NCCCCC3)o2)cc1 True

Queued: CC(=O)N(CCc1ccccc1C)Cc1cc2cc3c(cc2[nH]c1=O)OCO3 False

Note, next up: COC(=O)[C@@H]1C[C@@]2(O)[C@H](O)[C@H](O)[C@H](O)C[C@H]2N1Cc1c(F)cccc1Cl False

What would you report for O=C(O)c1ccccc1COc1ccccc1Cl ? False

Here is the next molecule: Clc1ccc(NC2=NCCCCC2)cc1 False

Cool, now O=C(O)c1ccc(COc2cccc(CO)c2)cc1 False

Okay, and Cc1sc2nc(CSc3nnc(Cc4cccs4)n3C3CCCCC3)[nH]c(=O)c2c1C ? False

Now the molecule COCCCNC(=O)Cn1nnc(-c2ccccc2NC(=O)c2ccccc2F)n1 False

Next record, please: O=C(O)c1cccc(COc2ccc(CO)cc2Cl)c1 True

Another molecule to check: O=C(O)c1ccc(COc2ccc(CO)cc2Cl)cc1 False

Queued: O=C(O)c1ccc(COc2ccc(Cl)cc2)o1 False

How about O=C(CCCOc1ccc(Cl)cc1Cl)N1CCN(c2ccccn2)CC1 ? False

What would you report for Cc1nnc(NC2=NCCCCC2)o1 ? False

---

- TEST_NAME: inhibitors of MT1-MMP promoter transcription, cell-based, luciferase reporter, luminescence (AID 618);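 also: actives suppress MT1-MMP promoter-driven transcription so potencies describe inhibitors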
- TEST_SETTINGS: MT1-MMP promoter luciferase reporter cells
The campaign covered roughly 87,000 compounds. About 540 (0.62%) were called active. The rule behind the calls is not given here. Many of the other results were omitted from the sample, so actives are more common in it than they were. Entries with a potency or affinity are not part of this list.
Output constraint: value belongs to active, inactive

Hey, what did the test say about Cn1ncc(N=Cc2ccc([N+](=O)[O-])cc2)c1C(=O)N1CCOCC1 ? inactive

Likewise for COc1cccc(-n2nnnc2SCC(=O)NC2CCCC2)c1 ? inactive

Ok, now Cc1ccc(C(=O)N/N=C/c2sc(=O)n(Cc3cccc(C(=O)O)c3)c2Cl)cc1 inactive

Could you do the same for CCOC(=O)CSc1nc(C)c2ccc(C)cc2n1 , please? inactive

Would you kindly repeat that for CCOC(=O)Cn1cc(C(=O)OC)c2ccccc21 ? inactive

What would you report for COc1cccc(C2CC(=O)Nc3cc4c(cc32)OCCO4)c1OC(C)C (configuration not stated) ? inactive

Please do the same for COCCn1c(-c2ccccc2F)n[nH]c1=S as well. inactive

Can you check COCCn1c(C)cc(C2=NNC(=Nc3ccc(Cl)cc3Cl)SC2)c1C next? inactive

Next up: COCCn1c(C)cc(C(=O)CSc2ncn[nH]2)c1C inactive

Okay, and O=C(Nc1ccc(N2C(=O)C3C4C=CC(C4)C3C2=O)cc1)Nc1nncs1 (configuration not stated) ? inactive

Same again, this time with CN1CCN(c2ccccc2NC(=O)c2ccc(-c3ccccc3)cc2)CC1 inactive

Lookup CCOc1cc(C(=O)N2CCc3cc(OC)c(OC)cc3C2)ccc1OC(F)F active

Another compound to look at: O=C(COc1ccc(S(=O)(=O)NC2CCCCC2)cc1)NCC1CCCO1 (configuration not stated) inactive

# repeat for CCCNCC(O)COc1ccccc1C(=O)CCc1ccccc1 (configuration not stated) active

Continue with CCOC(=O)c1c(NC(=O)Cc2cccs2)sc2c1CCCC2 inactive

Try this compound too: Cc1ccc(NC(=O)Cc2cn3ccsc3n2)nc1 inactive

Next entry: Cc1nc(Cl)sc1C(=O)O inactive

Same again, this time with O=C(NNC(=O)c1ccc(SCC2CCCO2)c([N+](=O)[O-])c1)c1ccc(F)cc1 (configuration not stated) inactive

Do the same for CC(C)(C)C(=O)/C(=C\c1ccc([N+](=O)[O-])cc1)n1cncn1 please active

Same question for CC(C)(C)NCC(O)COc1ccccc1C(=O)CCc1ccccc1 (configuration not stated) please. inactive

How about this compound: COc1ccc(C(=O)N2CCc3cc(OC)c(OC)cc3C2)cc1OC inactive

Follow-up entry: COCCn1c(C)cc(C(=O)CSc2nnc(C)s2)c1C active

Next: Cc1cccc(C)c1NC(=O)CSc1nnc(CCCCCNC(=O)OC(C)(C)C)o1 inactive

Do the same for CCOc1ccc(OCc2ccc(C(=O)NCc3cccnc3)o2)cc1 please inactive

Try O=S(=O)(Nc1ccc(-c2nc3cccnc3s2)cc1)c1cccs1 next. inactive

Continue with CC(C)CCNC(=O)C1C2C=CC3(CN(Cc4ccccc4Cl)C(=O)C13)O2 (configuration not stated) inactive

Continue with CCCS(=O)(=O)c1nnnn1-c1cccc(OC)c1 active

Can you handle CC(=O)Nc1ccc(NC(=O)c2ccccc2C)cc1 next? inactive

// query: COCCn1c(C)cc(C(=O)CSc2nncn2-c2ccccc2)c1C inactive

Please do the same for COc1ccc(-c2nc3ccccc3s2)cc1O as well. active

Request: CCCCN1Cc2cc(C(=O)c3cc(F)ccc3O)cnc2NC1=O inactive

// next record CN1Cc2cc(C(=O)c3ccccc3O)cnc2NC1=O inactive

Likewise for COc1cccc(Oc2nnnn2-c2ccccc2)c1 ? inactive

Then what about the compound CC(=O)c1ccc(OCC(O)CN2CCC(C)CC2)cc1 (configuration not stated) ? inactive

How about CC(C)OC(=O)CSc1nnc(-c2cccnc2)n1Cc1ccccc1 ? inactive

Note, next up: CCn1cc(C(=O)N2CCCC2)c(=O)c2cc(S(=O)(=O)N(C)C)ccc21 inactive

# iterate: CCCCN1CC(C(=O)NCc2ccc(C)cc2)CC1=O (configuration not stated) inactive

What do you get for O=C(CCc1ccccc1)c1ccc2c(c1)OCCCO2 ? inactive

Another: Cc1nnc(SCC(=O)c2cc(C)n(C3CC3)c2C)s1 inactive

Another compound to check: COc1cc(OC)cc(C(=O)Nn2c(C)nc3ccccc3c2=O)c1 inactive

Next compound: CN(C)S(=O)(=O)c1ccc(C(=O)OCC(=O)NC(=O)NCc2ccccc2)cc1 inactive

Can you handle O=C(N/N=C/c1ccc([N+](=O)[O-])s1)c1cccc(Br)c1 next? inactive

Entry CCOC(=O)c1ccc(N2C(=O)CC(N3CCC(C(N)=O)(N4CCCCC4)CC3)C2=O)cc1 (configuration not stated) please inactive

Now give it for CC1(C)CC(=O)N(c2ccccc2)C1(C)O (configuration not stated) too. inactive

Same question, CN1Cc2cc(C(=O)c3cc(Cl)cc(CSc4ncccn4)c3O)cnc2NC1=O this time active

Also COc1ccc(-c2nc3ccccc3c(=O)n2CCN2CCOCC2)cc1 , if possible. inactive

Cool, now COc1cc(-c2nc3ccccc3s2)ccc1O inactive
